Recorded values, source paper PMC6256987.

# MIC listing for each entry below
# System: Candida krusei ATCC 6258
# test-description: In vitro antifungal broth microdilution test
# Format: cell-based
# experimental-parameters: Pichia kudriavzevii, ATCC6258; 48h, 35 °C, RPMI 1640 pH 7.0, CLSI M27-A2 (IC80 value)

The compound O=S(=O)(c1ccc(O)c2ncccc12)N1CCOCC1 on Candida krusei ATCC 6258: MIC was 500 µM

The compound O=[N+]([O-])c1cc(S(=O)(=O)O)c2cccnc2c1O on Candida krusei ATCC 6258: MIC was > 250 µM

The compound Oc1c(Cl)cc(Cl)c2ccc(C=Cc3ccc(C=Cc4ccc5c(Cl)cc(Cl)c(O)c5n4)cc3)nc12 on Candida krusei ATCC 6258: MIC was 1.95 µM

More entries:
The compound Oc1cc(O)cc(C=Cc2ccc3c(Cl)cc(Cl)c(O)c3n2)c1 on Candida krusei ATCC 6258: MIC was > 125 µM

The compound O=S(=O)(NCCCCc1ccccc1)c1ccc(O)c2ncccc12 on Candida krusei ATCC 6258: MIC was > 125 µM

The compound O=[N+]([O-])c1ccc(O)c2ncccc12 on Candida krusei ATCC 6258: MIC was > 500 µM

The compound OC(Cn1cncn1)(Cn1cncn1)c1ccc(F)cc1F [FLU, fluconazole, reference compound] on Candida krusei ATCC 6258: MIC was 15.6 µM

The compound CC(=O)Nc1ccc2cccc(OC(C)=O)c2n1 [Compound 8, 2-Acetylaminoquinolin-8-yl acetate] on Candida krusei ATCC 6258: MIC was 62.5 µM

###

# System: Absidia corymbifera 272
# test-description: In vitro antifungal broth microdilution test
# Type: cell-based
# experimental-parameters: Lichtheimia corymbifera, 272; 48h, 35 °C, RPMI 1640 pH 7.0, CLSI M38-A (IC50 value)
# MIC listing for each entry below

The examples below pair each entry with its known result.
For reference, reported MIC for Oc1c(Cl)cc(Cl)c2ccc(C=Cc3ccc(C=Cc4ccc5c(Cl)cc(Cl)c(O)c5n4)cc3)nc12 [Compound 14] stands at 31.2 µM

For reference, reported MIC for O=[N+]([O-])c1cc(S(=O)(=O)O)c2cccnc2c1O [Compound 2] stands at > 250 µM

For reference, reported MIC for O=[N+]([O-])c1ccc(O)c2ncccc12 [Compound 1, 5-Nitroquinolin-8-ol] stands at > 500 µM

More entries:
For reference, reported MIC for O=S(=O)(c1ccc(O)c2ncccc12)N1CCOCC1 [Compound 4, 5-(Morpholine-4-sulfonyl)quinolin-8-ol] stands at 250 µM

###

# Tested on: Absidia corymbifera 272
# test-description: In vitro antifungal broth microdilution test
# Assay type: cell-based
# experimental-parameters: Lichtheimia corymbifera, 272; 24h, 35 °C, RPMI 1640 pH 7.0, CLSI M38-A (IC50 value)
# MIC listing for each entry below
Give the value, in units of µM, as a plain number.

The examples below pair each entry with its known result.
For reference, reported MIC for Oc1cc(O)cc(C=Cc2ccc3c(Cl)cc(Cl)c(O)c3n2)c1 stands at 62.5

For reference, reported MIC for O=S(=O)(NCCc1ccccc1)c1ccc(O)c2ncccc12 stands at 125

For reference, reported MIC for CC(=O)Nc1ccc2cccc(OC(C)=O)c2n1 [Compound 8, 2-Acetylaminoquinolin-8-yl acetate] stands at 62.5

For reference, reported MIC for O=S(=O)(O)c1cc(Br)c(O)c2ncccc12 stands at 7.8

For reference, reported MIC for O=S(=O)(c1ccc(O)c2ncccc12)N1CCOCC1 stands at 125

For reference, reported MIC for Oc1ccc(C=Cc2ccc3c(Cl)cc(Cl)c(O)c3n2)cc1 stands at 31.2

Next compound, MIC to be filled in.
For reference, reported MIC for Oc1c(Cl)cc(Cl)c2ccc(C=Cc3ccc(C=Cc4ccc5c(Cl)cc(Cl)c(O)c5n4)cc3)nc12 stands at 15.6
